- Assay Text: FRG1 promoter luciferase signal modulators, primary screen, FRG1 inhibition for FSHD, cell-based, C2C12 myotubes, firefly/Renilla luciferase, luminescence (AID 1084)
- Experimental Setup: higher = more signal, called active from +8 up or from −8 down
Outcome Measure: z-score

{"columns": ["Compound", "Outcome Measure", "Numeric Value"],
 "data": [
  ["NC(=O)NCC#Cc1ccc2c(c1)[C@]1(C(=O)N2)[C@H](c2ccccc2OCCO)N2[C@H](c3ccccc3)[C@H](c3ccccc3)OC(=O)[C@H]2[C@@H]1C(=O)N1CCN(c2ncccn2)CC1", "z-score", -0.112],
  ["COCCCNC(=O)[C@@H]1c2ccccc2C(=O)N(CC23CC4CC(CC(C4)C2)C3)[C@H]1c1ccc(CO)cc1", "z-score", -2.03],
  ["COc1cccc([C@@H]2[C@@H](C)CC[C@H]3C(=O)N(C)[C@@H](C(C)C)C(=O)N23)c1", "z-score", 0.056],
  ["CO[C@H]1O[C@H](CO)[C@@H](OC(=O)Nc2ccc(Oc3ccccc3)cc2)[C@H](OC(=O)Nc2ccccc2-c2ccccc2)[C@H]1OC(=O)Nc1ccccc1-c1ccccc1", "z-score", -0.441],
  ["C=C(/C(=C/C[C@@H](OC(=O)c1ccncc1)c1ccc(CO)o1)c1cnc2ccccc2c1)C(C)C", "z-score", -0.493],
  ["CO[C@H]1COC(=O)CC=C[C@@H](C)COC(=O)[C@@H](C)NC(=O)CC=C[C@@H]1C", "z-score", -1.88],
  ["C=CC[C@]1(C(N)=O)N=C(c2ccc(OCCCO)cc2)O[C@H]1c1ccccc1CN=[N+]=[N-]", "z-score", 1.2],
  ["O=C(CS)NCCCCCCNC(=O)[C@@H]1C[C@@H]2C(=O)N[C@@H](Cc3ccccc3)C(=O)N2[C@@H]1c1ccc(O)cc1", "z-score", 1.21],
  ["C=CCN1C(=O)[C@@]2(Cc3ccccc3)N=C(c3ccc(OCCCO)cc3)O[C@H]2c2ccccc21", "z-score", -2.86],
  ["CO[C@H]1COC(=O)[C@H](Cc2ccccc2)NC(=O)CC=C[C@@H](C)[C@H](OC)COC(=O)CC=C[C@@H]1C", "z-score", -0.244],
  ["C=CCN1C(=O)[C@@]2(O[C@@H](CCn3cc([C@H](O)c4ccccc4)nn3)[C@H]([Si](C)(C)c3ccc(OC)cc3)[C@H]2C)c2cc(N3CCOC3=O)ccc21", "z-score", -2],
  ["C[C@@H]1CC[C@H]2C(=O)N3CCC[C@H]3C(=O)N2[C@H]1c1ccc(Br)cc1", "z-score", -0.228],
  ["COC(=O)[C@H]1[C@@H]2COc3ccccc3[C@H]2N[C@H]1C(=O)OC", "z-score", 0.44],
  ["C[N+](C)(C)CCCCNC(=O)[C@H]1C[C@H]2C(=O)NCC(=O)N2[C@H]1c1cccc(OCCO)c1", "z-score", 1.73],
  ["O=C(NCC(O)CO)[C@]1(Cc2ccccc2)N=C(c2ccc(OCCCO)cc2)O[C@@H]1c1ccccc1 (stereo not given in full)", "z-score", -1.63]
]}
